conditions: SEC traces
Property: aggregation / monomer stability on SEC

Molecule	Result
4NBX.B-biotin103: nanobody 4NBX.B A103C (SEQ ID NO:2) conjugated with biotin C2 maleimide at site 103 (conjugate) VHH: QVQLQESGGGLAQAGGSLRLSCAASGRTFSMDPMAWFRQPPGKEREFVAAGSSTGRTTYYADSVKGRFTISRDNAKNTVYLQMNSLKPEDTAVYYCAAAPYGCNWYRDEYAYWGQGTQVTVSSHHHHHH	single peaks
4NBX.B-biotin103 v119: 4NBX.B-biotin103 with M31H/D32A/N104S/W105H, SEQ ID NO:3 (conjugate) VHH: QVQLQESGGGLAQAGGSLRLSCAASGRTFSHAPMAWFRQPPGKEREFVAAGSSTGRTTYYADSVKGRFTISRDNAKNTVYLQMNSLKPEDTAVYYCAAAPYGCSHYRDEYAYWGQGTQVTVSSHHHHHH	single peaks

# credit: patent US20210398607A1
